Where do the numbers come from? From paper PMC6261661.

molecular target: mMC4R (Mus musculus, UniProt P56450); test: Antagonist Schild analysis against agonist MTII at mMC4R; assay type: cell-based; conditions: Ant = antagonist; SA = some stimulatory activity at 100 µM
Sequence (P56450 whole entry): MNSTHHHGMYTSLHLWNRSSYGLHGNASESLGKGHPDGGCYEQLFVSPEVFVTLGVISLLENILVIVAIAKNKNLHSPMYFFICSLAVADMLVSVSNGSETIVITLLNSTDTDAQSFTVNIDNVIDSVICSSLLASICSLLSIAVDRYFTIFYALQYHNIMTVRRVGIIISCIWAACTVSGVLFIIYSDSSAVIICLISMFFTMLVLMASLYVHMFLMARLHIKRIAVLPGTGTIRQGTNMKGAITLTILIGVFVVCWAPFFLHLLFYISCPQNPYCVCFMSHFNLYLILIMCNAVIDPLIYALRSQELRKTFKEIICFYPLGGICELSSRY
Square brackets hold non-standard residues; d marks the D form. Peptide text beside a SMILES is read from it. * marks the point of attachment. Bip = N[C@@H](Cc1ccc(-c2ccccc2)cc1)C(=O)O; dBip = N[C@H](Cc1ccc(-c2ccccc2)cc1)C(=O)O; dPhe(4-I) = N[C@H](Cc1ccc(I)cc1)C(=O)O; 4Pal = N[C@@H](Cc1ccncc1)C(=O)O; 2Thi = N[C@@H](Cc1cccs1)C(=O)O; Octanoyl = CCCCCCCC(=O)*
REPORTED_ENDPOINT: mMC4R pharmacology class printed in Fold Diff. column (Ant, SA)

Previously resolved entries follow.
CC(=O)N[C@@H](Cc1c[nH]cn1)C(=O)N[C@H](Cc1ccc(-c2ccccc2)cc1)C(=O)N[C@@H](CCCNC(=N)N)C(=O)N[C@@H](Cc1ccc(-c2ccccc2)cc1)C(N)=O [Peptide 33, Ac-His-DBip-Arg-Bip-NH2] (Ac-H[dBip]R[Bip]-NH2); Ant
CC(=O)N[C@@H](Cc1ccccc1)C(=O)N[C@H](Cc1ccc(I)cc1)C(=O)N[C@@H](CCCNC(=N)N)C(=O)N[C@@H](Cc1c[nH]c2ccccc12)C(N)=O [Peptide 15, Ac-Phe-(pI)DPhe-Arg-Trp-NH2] (Ac-F[dPhe(4-I)]RW-NH2); SA Ant
CCCCCCCC(=O)N[C@@H](Cc1c[nH]cn1)C(=O)N[C@H](Cc1ccc(I)cc1)C(=O)N[C@@H](CCCNC(=N)N)C(=O)N[C@@H](Cc1c[nH]c2ccccc12)C(N)=O [Peptide 6, Octanoyl-His-(pI)DPhe-Arg-Trp-NH2]; Ant
CC(=O)N[C@@H](Cc1cccs1)C(=O)N[C@H](Cc1ccc(I)cc1)C(=O)N[C@@H](CCCNC(=N)N)C(=O)N[C@@H](Cc1c[nH]c2ccccc12)C(N)=O [Peptide 14, Ac-2Thi-(pI)DPhe-Arg-Trp-NH2] (Ac-[2Thi][dPhe(4-I)]RW-NH2); SA Ant

Q: Param item = CC(=O)N[C@@H](Cc1c[nH]c2ccccc12)C(=O)N[C@H](Cc1ccc(I)cc1)C(=O)N[C@@H](CCCNC(=N)N)C(=O)N[C@@H](Cc1c[nH]c2ccccc12)C(N)=O [Peptide 13, Ac-Trp-(pI)DPhe-Arg-Trp-NH2] (Ac-W[dPhe(4-I)]RW-NH2) ; retrieve measured mMC4R pharmacology class printed in Fold Diff. column (Ant, SA).
Result: SA Ant

Q: Consider next the molecule CCCCCCCC(=O)N[C@@H](Cc1c[nH]cn1)C(=O)N[C@H](Cc1ccccc1)C(=O)N[C@@H](CCCNC(=N)N)C(=O)N[C@H](Cc1ccc(-c2ccccc2)cc1)C(N)=O [Peptide 8, Octanoyl-His-DPhe-Arg-DBip-NH2] (Octanoyl-H[dF]R[dBip]-NH2) in the same way.
Result: Ant

Q: CC(=O)N[C@@H](Cc1c[nH]cn1)C(=O)N[C@H](Cc1ccc(I)cc1)C(=O)N[C@@H](CCCNC(=N)N)C(=O)N[C@@H](Cc1ccc(-c2ccccc2)cc1)C(N)=O [Peptide 29, Ac-His-(pI)DPhe-Arg-Bip-NH2] (Ac-H[dPhe(4-I)]R[Bip]-NH2) ?
Result: SA Ant

Q: Would you kindly repeat that for CC(=O)N[C@@H](Cc1ccncc1)C(=O)N[C@H](Cc1ccc(I)cc1)C(=O)N[C@@H](CCCNC(=N)N)C(=O)N[C@@H](Cc1c[nH]c2ccccc12)C(N)=O [Peptide 16, Ac-4PAL-(pI)DPhe-Arg-Trp-NH2] (Ac-[4Pal][dPhe(4-I)]RW-NH2) ?
Result: Ant

Q: Now this one: CC(=O)N[C@@H](Cc1ccc(-c2ccccc2)cc1)C(=O)N[C@H](Cc1ccc(I)cc1)C(=O)N[C@@H](CCCNC(=N)N)C(=O)N[C@@H](Cc1c[nH]c2ccccc12)C(N)=O [Peptide 17, Ac-Bip-(pI)DPhe-Arg-Trp-NH2] (Ac-[Bip][dPhe(4-I)]RW-NH2)
Result: Ant

* * *

molecular target: UniProt P33033; test: cell-based; assay type: cell-based; conditions: fold difference in EC50 vs peptide 1; negative prefix = more potent than 1
Square brackets hold non-standard residues; d marks the D form. Peptide text beside a SMILES is read from it. * marks the point of attachment. 2Nal = N[C@@H](Cc1ccc2ccccc2c1)C(=O)O; Bta = N[C@@H](Cc1csc2ccccc12)C(=O)O; Tic = O=C(O)[C@@H]1Cc2ccccc2CN1; 2Thi = N[C@@H](Cc1cccs1)C(=O)O; Octanoyl = CCCCCCCC(=O)*
# cutoff 5 applies to mMC3R Fold Diff; >= gives T, < gives F

Worked examples follow.
CCCCCCCC(=O)N[C@H](Cc1c[nH]cn1)C(=O)N[C@H](Cc1ccccc1)C(=O)N[C@@H](CCCNC(=N)N)C(=O)N[C@@H](Cc1c[nH]c2ccccc12)C(N)=O [Peptide 9, Octanoyl-DHis-DPhe-Arg-Trp-NH2]; T
CCCCCCCC(=O)N[C@@H](Cc1c[nH]cn1)C(=O)N[C@H](Cc1ccccc1)C(=O)N[C@@H](CCCNC(=N)N)C(=O)N[C@@H](Cc1csc2ccccc12)C(N)=O [Peptide 3, Octanoyl-His-DPhe-Arg-3Bal-NH2] (Octanoyl-H[dF]R[Bta]-NH2); F
CC(=O)N[C@@H](Cc1cccs1)C(=O)N[C@H](Cc1ccccc1)C(=O)N[C@@H](CCCNC(=N)N)C(=O)N[C@@H](Cc1ccc2ccccc2c1)C(N)=O [Peptide 28, Ac-2Thi-DPhe-Arg-Nal(2’)-NH2] (Ac-[2Thi][dF]R[2Nal]-NH2); T

As a next step, examine the compound that follows.
Q: Can CCCCCCCC(=O)N[C@@H](Cc1c[nH]cn1)C(=O)N[C@H](Cc1ccccc1)C(=O)N[C@@H](CCCNC(=N)N)C(=O)N1Cc2ccccc2C[C@H]1C(N)=O [Peptide 4, Octanoyl-His-DPhe-Arg-Tic-NH2] (Octanoyl-H[dF]R[Tic]-NH2) be said to have mMC3R Fold Diff at or above 5?
Result: T

* * *

biological target: mMC3R (Mus musculus, UniProt P33033); assay: Antagonist Schild analysis against agonist MTII at mMC3R; format: cell-based
Sequence (P33033 whole entry): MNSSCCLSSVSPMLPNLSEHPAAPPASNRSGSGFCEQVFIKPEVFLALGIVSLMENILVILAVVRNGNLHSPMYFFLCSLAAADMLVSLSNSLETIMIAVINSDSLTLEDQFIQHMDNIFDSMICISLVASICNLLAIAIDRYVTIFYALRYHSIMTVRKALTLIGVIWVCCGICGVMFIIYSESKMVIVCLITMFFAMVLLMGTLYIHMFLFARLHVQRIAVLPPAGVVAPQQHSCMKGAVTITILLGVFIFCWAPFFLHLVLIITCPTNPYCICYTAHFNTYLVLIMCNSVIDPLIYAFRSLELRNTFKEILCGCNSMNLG
Square brackets hold non-standard residues; d marks the D form. Peptide text beside a SMILES is read from it. dBip = N[C@H](Cc1ccc(-c2ccccc2)cc1)C(=O)O; dPhe(4-I) = N[C@H](Cc1ccc(I)cc1)C(=O)O; 2Nal = N[C@@H](Cc1ccc2ccccc2c1)C(=O)O; 2Thi = N[C@@H](Cc1cccs1)C(=O)O
REPORTED_ENDPOINT: Kb (µM)
Just the number please, in µM, no unit attached.

Use the examples below as a reference point.
CC(=O)N[C@@H](Cc1c[nH]cn1)C(=O)N[C@H](Cc1ccc(-c2ccccc2)cc1)C(=O)N[C@@H](CCCNC(=N)N)C(=O)N[C@@H](Cc1ccc2ccccc2c1)C(N)=O [Peptide 36, Ac-His-DBip-Arg-Nal(2’)-NH2] (Ac-H[dBip]R[2Nal]-NH2); 0.0251
CC(=O)N[C@@H](Cc1c[nH]c2ccccc12)C(=O)N[C@H](Cc1ccc(I)cc1)C(=O)N[C@@H](CCCNC(=N)N)C(=O)N[C@@H](Cc1c[nH]c2ccccc12)C(N)=O [Peptide 13, Ac-Trp-(pI)DPhe-Arg-Trp-NH2] (Ac-W[dPhe(4-I)]RW-NH2); 0.0631
CC(=O)N[C@@H](Cc1ccccc1)C(=O)N[C@H](Cc1ccc(I)cc1)C(=O)N[C@@H](CCCNC(=N)N)C(=O)N[C@@H](Cc1c[nH]c2ccccc12)C(N)=O [Peptide 15, Ac-Phe-(pI)DPhe-Arg-Trp-NH2] (Ac-F[dPhe(4-I)]RW-NH2); 0.126

Now take the following compound into account.
Q: Which Kb is listed for CC(=O)N[C@@H](Cc1cccs1)C(=O)N[C@H](Cc1ccc(I)cc1)C(=O)N[C@@H](CCCNC(=N)N)C(=O)N[C@@H](Cc1c[nH]c2ccccc12)C(N)=O [Peptide 14, Ac-2Thi-(pI)DPhe-Arg-Trp-NH2] (Ac-[2Thi][dPhe(4-I)]RW-NH2) ?
Result: 0.0398

* * *

biological target: UniProt:P41149; assay: CRE/β-galactosidase reporter gene bioassay, agonist activity at mMC5R; format: cell-based; details: less potent than 1
Sequence (P41149 whole entry): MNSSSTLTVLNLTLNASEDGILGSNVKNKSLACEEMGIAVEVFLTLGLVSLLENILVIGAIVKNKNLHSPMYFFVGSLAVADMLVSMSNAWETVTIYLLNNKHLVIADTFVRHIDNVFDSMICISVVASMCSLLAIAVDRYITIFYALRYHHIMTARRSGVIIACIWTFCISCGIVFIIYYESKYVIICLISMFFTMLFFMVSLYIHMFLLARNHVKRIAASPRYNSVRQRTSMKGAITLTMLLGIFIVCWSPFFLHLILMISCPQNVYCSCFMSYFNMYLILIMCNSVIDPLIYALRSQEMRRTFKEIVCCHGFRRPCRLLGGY
Square brackets hold non-standard residues; d marks the D form. Peptide text beside a SMILES is read from it. * marks the point of attachment. dPhe(4-I) = N[C@H](Cc1ccc(I)cc1)C(=O)O; 2Nal = N[C@@H](Cc1ccc2ccccc2c1)C(=O)O; Tic = O=C(O)[C@@H]1Cc2ccccc2CN1; 2Thi = N[C@@H](Cc1cccs1)C(=O)O; Octanoyl = CCCCCCCC(=O)*
REPORTED_ENDPOINT: mMC5R fold less potent than peptide 1 (fold)
Use fold as the unit, but write only the number.

Below: 3 molecules and their reported mMC5R fold less potent than peptide 1.
CCCCCCCC(=O)N[C@@H](Cc1c[nH]cn1)C(=O)N[C@H](Cc1ccccc1)C(=O)N[C@@H](CCCNC(=N)N)C(=O)N1Cc2ccccc2C[C@H]1C(N)=O [Peptide 4, Octanoyl-His-DPhe-Arg-Tic-NH2] (Octanoyl-H[dF]R[Tic]-NH2); 50
CC(=O)N[C@@H](Cc1cccs1)C(=O)N[C@H](Cc1ccccc1)C(=O)N[C@@H](CCCNC(=N)N)C(=O)N[C@@H](Cc1ccc2ccccc2c1)C(N)=O [Peptide 28, Ac-2Thi-DPhe-Arg-Nal(2’)-NH2] (Ac-[2Thi][dF]R[2Nal]-NH2); 14
CC(=O)N[C@@H](Cc1c[nH]c2ccccc12)C(=O)N[C@H](Cc1ccc(I)cc1)C(=O)N[C@@H](CCCNC(=N)N)C(=O)N[C@@H](Cc1c[nH]c2ccccc12)C(N)=O [Peptide 13, Ac-Trp-(pI)DPhe-Arg-Trp-NH2] (Ac-W[dPhe(4-I)]RW-NH2); 1900

Now for another entry.
Q: What value of mMC5R fold less potent than peptide 1 on UniProt:P41149 does CCCCCCCC(=O)N[C@H](Cc1c[nH]cn1)C(=O)N[C@H](Cc1ccccc1)C(=O)N[C@@H](CCCNC(=N)N)C(=O)N[C@@H](Cc1c[nH]c2ccccc12)C(N)=O [Peptide 9, Octanoyl-DHis-DPhe-Arg-Trp-NH2] have?
Result: 55
